tested-system: Plasminogen (Homo sapiens, UniProt P00747)
Sequence (P00747 97-580 limits assumed): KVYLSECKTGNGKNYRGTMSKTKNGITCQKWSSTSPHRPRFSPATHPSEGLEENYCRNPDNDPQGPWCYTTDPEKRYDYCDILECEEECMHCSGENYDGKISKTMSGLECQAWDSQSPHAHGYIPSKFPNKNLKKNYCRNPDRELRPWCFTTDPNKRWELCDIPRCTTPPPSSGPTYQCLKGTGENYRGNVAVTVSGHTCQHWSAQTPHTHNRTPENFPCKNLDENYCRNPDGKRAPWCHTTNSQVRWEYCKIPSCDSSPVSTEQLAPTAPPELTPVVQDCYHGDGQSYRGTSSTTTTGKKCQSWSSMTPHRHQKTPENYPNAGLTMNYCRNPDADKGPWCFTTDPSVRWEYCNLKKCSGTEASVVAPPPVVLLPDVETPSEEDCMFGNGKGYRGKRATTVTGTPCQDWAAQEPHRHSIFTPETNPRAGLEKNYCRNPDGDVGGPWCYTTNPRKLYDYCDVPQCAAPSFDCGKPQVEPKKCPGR
Sequence (P00747 581-810 limits assumed): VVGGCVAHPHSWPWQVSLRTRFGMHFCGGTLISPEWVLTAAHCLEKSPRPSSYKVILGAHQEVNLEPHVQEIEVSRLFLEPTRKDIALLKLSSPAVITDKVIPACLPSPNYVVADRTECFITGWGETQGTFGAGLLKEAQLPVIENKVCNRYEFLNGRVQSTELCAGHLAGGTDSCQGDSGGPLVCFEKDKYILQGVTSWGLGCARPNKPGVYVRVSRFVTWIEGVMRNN
metric-name: pKi
// pKi: -log10(molar conc.)

>>> test_value("N=C(N)c1ccc(O)c(CN2CC[C@H](NS(=O)(=O)c3cc4ccnc(Cl)c4s3)C2=O)c1")
5.14

Next compound, pKi to be filled in.
For the compound N=C(N)c1ccc(O)c(CN2CC[C@H](NS(=O)(=O)c3cc4nc(Cl)ccc4s3)C2=O)c1 , the measured pKi on Plasminogen (Homo sapiens, UniProt P00747) was 5.44

###

tested-system: Coagulation factor X (Rattus norvegicus)
measurement-protocol: Inhibitory activity against factor Xa in rat plasma
metric-name: IC50

Consider N=C(N)c1ccc(O)c(CN2CC[C@H](NS(=O)(=O)c3cc4ccncc4s3)C2=O)c1 . Its measured IC50 is 0.011 µM

###

pKi: −log10 of the molar value.
Target or system Tissue-type plasminogen activator (Homo sapiens): recorded pKi listed per item.

Answered examples (2):
>>> test_value("N=C(N)c1ccc(N)c(CN2CC[C@H](NS(=O)(=O)c3cc4nc(Cl)ccc4s3)C2=O)c1")
"< 5.06"
>>> test_value("N=C(N)c1cccc(CN2CC[C@H](NS(=O)(=O)c3cc4ncccc4s3)C2=O)c1")
"< 5.06"

Consider now this further compound.
Lab note: compound N=C(N)c1ccc(O)c(CN2CC[C@H](NS(=O)(=O)c3cc4ccncc4s3)C2=O)c1 tested on Tissue-type plasminogen activator (Homo sapiens); recorded pKi was < 5.06

###

Values of Ki reported for UniProt P00747 appear below.

Hey, UniProt P00747 data for COc1ccc2sc(S(=O)(=O)N[C@H]3CCN(Cc4cc(C(=N)N)ccc4N)C3=O)cc2n1 : Ki came out at > 7.3 µM

Result for N=C(N)c1ccc(O)c(CN2CC[C@H](NS(=O)(=O)c3cc4cnccc4s3)C2=O)c1 , tested on UniProt P00747, Ki: > 7.3 µM

The observed Ki for N=C(N)c1cccc(CN2CC[C@H](NS(=O)(=O)c3cc4ncccc4s3)C2=O)c1 when tested with UniProt P00747 stands at > 7.3 µM
